# Test system: NCI-H322M lung
# PROCEDURE SUMMARY: NCI-60 one-dose screen, 48 h (100 = growth as untreated, 0 = no growth, -100 = all killed)
# CONDITION SET: 10 µM unless noted
This is part of a sample that, as a whole, favours compounds with a hit. Of some 83,000 tested, about 20% had one in any assay.

COMPOUND	growth / %
Clc1cc(Cl)c(OCC#CI)cc1Cl	127
O=[P@@]1(c2ccccc2)O[C@H](COCc2ccccc2)[C@@H](OCc2ccccc2)[C@H](OCc2ccccc2)[C@H]1NCc1ccccc1	47.9
CCCCCCCC1(C)NC(=O)NC1=O (centres undefined)	119
Fc1ccc(-c2nc(Nc3ccc(-c4nc5ccccc5[nH]4)cc3)nc(N3CCOCC3)n2)cc1	-92.8
Cc1ccc(C(=O)Nc2ccc(Cl)cc2C(=O)NCc2ccccc2)cc1	98.2
CCOc1cccc(C2CC(=O)Nc3cc4c(cc32)OCO4)c1 (centres undefined)	91.1
COc1cc(OC)c2sc(-c3ccc(-n4cncc4-c4ccc(N)cc4)cc3)nc2c1	84.7
C=C(C)[C@H]1CC/C(C)=C/CC[C@]2(C)O[C@H]2CC/C(COC(C)=O)=C\C1=O	87.3
Nc1nc(Cl)c2[nH]cnc2n1	93.1
CCOc1nc(-c2ccccc2)cc2c(O)c(C(=O)n3nc(C)cc3C)[nH]c(=O)c12	103
COc1ccc(-c2noc(N)c2-c2cc(OC)c3c(c2)OCO3)cc1	57.5
Cc1ccccc1-c1cc(Cc2ccccc2O)c(=O)[nH]n1	115
COc1ccc(Nc2ccnc(NCCCNc3ccnc4cc(Cl)ccc34)n2)cc1	3.32
CCOc1ccccc1C(=O)OCC(=O)Nc1cccc(S(=O)(=O)N(C)C)c1	124
COc1ccc2c(c1)nc(N)c1c3ccccc3cn21	88.1
CCC(CCC(C)C1CCC2C3CC=C4CC(O)CCC4(C)C3CCC12C)C(C)C (centres undefined) (tested in a mixture with another compound)	145
C[C@]12C[C@H](O)[C@H]3[C@@H](CCC4=CC(=O)CC[C@@]43C)[C@@H]1CC[C@@H]2C(=O)CO	105
COc1ccc(/C=C2\NC(=S)NC2=O)cc1	95.2
Cc1cc(NC(=O)c2ccc(N)cc2)ccc1N=Nc1ccc2c(O)c(N=Nc3ccc(Cl)c(S(=O)(=O)O)c3)c(S(=O)(=O)O)cc2c1	62.5
COc1c(C)c2c(c(O)c1C/C=C(\C)CCC(=O)OCCN1CCOCC1)C(=O)OC2	33.2
O=C(C(=O)N1CCOCC1)c1ccc(OC2OC(CO)C(O)C(O)C2O)cc1 (centres undefined)	115
Cc1cc2cn3c4cccnc4[nH]c(=O)c3c2cc1C	91.8
Cn1cc(-c2csc(-c3c[nH]c4ncccc34)n2)c2cc(F)cnc21	70.7
CC[C@@H]1OC(=O)[C@H](C)[C@@H](O[C@H]2C[C@@](C)(OC)[C@@H](O)[C@H](C)O2)[C@H](C)[C@@H](O[C@@H]2O[C@H](C)C[C@H](N(C)C)[C@H]2O)[C@](C)(O)C[C@@H](C)[C@@H]2N[C@@H](COCCOC)O[C@H]([C@H]2C)[C@]1(C)O	96
O=C1/C(=N/O)CCc2ccccc21	102
Clc1cccc(Cc2cn3cc(-c4ccccc4)nc3s2)c1	63.5
CC(=O)Oc1ccc(C2OC(c3ccc4ccccc4c3OC(C)=O)=NN2C(C)=O)c(OC(C)=O)c1 (centres undefined)	24.4
COc1cc2c(cc1OCCCOc1ccc(-c3cc4ccccc4c4ccccc34)cc1)N=C[C@@H]1CCCN1C2=O	-69.4
CN(CC(=O)N(Cc1ccc(C2CCCCC2)cc1)c1ccc(C(=O)O)cc1)S(=O)(=O)c1c(F)c(F)c(F)c(F)c1F	86.4
CCC(C)(C)C(=O)O[C@H]1C[C@@H](C)C=C2C=C[C@H](C)[C@H](CC[C@@H]3C[C@@H](O)CC(=O)O3)[C@H]21	51
Cn1cc(-c2csc(-c3cn(C)c4ncccc34)n2)c2cc(F)cnc21	112
COc1ccc2c(c1)nc(N)c1c3cc(OC)c(OC)cc3cn21	84.6
O=C(O)c1ccccc1C(=O)OC1CCCC2CCCC21 (centres undefined)	115
CC(=O)O[C@H]1C(=O)[C@@]2(C)C([C@H](OC(=O)c3ccccc3)[C@]3(O)C[C@H](OC(=O)[C@H](O)[C@@H](NC(=O)c4ccccc4)c4ccccc4)C(C)=C1C3(C)C)[C@]1(OC(C)=O)CO[C@@H]1C[C@@H]2O (some centres undefined)	28.1
